Here the recorded pIC50 is given for each entry.
system: AMP deaminase 2 (Homo sapiens, UniProt Q01433)
Sequence (Q01433 whole entry): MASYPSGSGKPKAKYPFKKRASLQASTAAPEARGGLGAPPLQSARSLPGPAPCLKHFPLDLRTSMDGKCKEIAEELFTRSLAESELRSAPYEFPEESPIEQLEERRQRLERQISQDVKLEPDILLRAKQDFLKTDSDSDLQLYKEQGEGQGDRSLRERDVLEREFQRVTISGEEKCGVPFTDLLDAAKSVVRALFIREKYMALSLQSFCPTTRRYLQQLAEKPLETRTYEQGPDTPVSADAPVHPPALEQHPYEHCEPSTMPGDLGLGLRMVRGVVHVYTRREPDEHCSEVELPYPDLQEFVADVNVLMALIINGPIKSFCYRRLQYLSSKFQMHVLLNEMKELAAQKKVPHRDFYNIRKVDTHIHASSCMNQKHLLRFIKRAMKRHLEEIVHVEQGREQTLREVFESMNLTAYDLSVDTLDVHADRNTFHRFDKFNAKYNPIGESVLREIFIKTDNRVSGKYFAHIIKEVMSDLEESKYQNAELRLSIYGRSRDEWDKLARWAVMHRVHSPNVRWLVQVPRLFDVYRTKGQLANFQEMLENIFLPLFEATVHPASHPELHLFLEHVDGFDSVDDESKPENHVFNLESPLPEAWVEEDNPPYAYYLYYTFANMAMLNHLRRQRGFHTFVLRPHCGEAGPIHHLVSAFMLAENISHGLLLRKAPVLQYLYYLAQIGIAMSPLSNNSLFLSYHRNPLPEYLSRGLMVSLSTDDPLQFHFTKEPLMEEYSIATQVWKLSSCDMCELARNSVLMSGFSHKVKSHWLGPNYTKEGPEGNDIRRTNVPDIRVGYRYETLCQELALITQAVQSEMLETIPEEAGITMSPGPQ
assay: Inhibition of recombinant human AMPD2 using AMP as substrate incubated for 30 mins by spectrophotometric analysis
pIC50: −log10 of the molar value.

recordSmiles | pIC50
CC1(C)CN(C(N)=O)c2ccccc2N1Cc1ccc(COc2ccccc2)cc1 | 5.59
CC1(C)CN(C(N)=O)c2cccc(Cl)c2N1Cc1ccccc1 | 5.77
Cc1ccc(CN2c3ccccc3N(C(N)=O)CC2(C)C)cc1 | 5.85
CC1(C)CN(C(N)=O)c2ccc(F)c(F)c2N1Cc1ccccc1 | 5.74
CC1(C)CN(C(N)=O)c2ccccc2N1Cc1ccc(CCc2ccccc2)cc1 | 5.22
CC1(C)CN(C(N)=O)c2ccccc2N1Cc1ccccc1 | 5.52
CC1(C)CN(C(N)=O)c2cc(F)cc(F)c2N1Cc1ccccc1 | 5.39
CC1(C)CN(C(N)=O)c2cccc(F)c2N1Cc1ccccc1 | 5.96
CC1(C)CN(C(N)=O)c2ccccc2N1Cc1ccc(Cl)cc1 | 5.77
CC1(C)CN(C(N)=O)c2ccccc2N1Cc1ccc(OCc2ccccc2)cc1 | 5.51
CC1(C)CN(C(N)=O)c2cc(F)ccc2N1Cc1ccccc1 | 5.72

---

Here the recorded pIC50 is given for each entry.
system: AMP deaminase 2 (Homo sapiens, UniProt Q01433)
Sequence (Q01433 whole entry): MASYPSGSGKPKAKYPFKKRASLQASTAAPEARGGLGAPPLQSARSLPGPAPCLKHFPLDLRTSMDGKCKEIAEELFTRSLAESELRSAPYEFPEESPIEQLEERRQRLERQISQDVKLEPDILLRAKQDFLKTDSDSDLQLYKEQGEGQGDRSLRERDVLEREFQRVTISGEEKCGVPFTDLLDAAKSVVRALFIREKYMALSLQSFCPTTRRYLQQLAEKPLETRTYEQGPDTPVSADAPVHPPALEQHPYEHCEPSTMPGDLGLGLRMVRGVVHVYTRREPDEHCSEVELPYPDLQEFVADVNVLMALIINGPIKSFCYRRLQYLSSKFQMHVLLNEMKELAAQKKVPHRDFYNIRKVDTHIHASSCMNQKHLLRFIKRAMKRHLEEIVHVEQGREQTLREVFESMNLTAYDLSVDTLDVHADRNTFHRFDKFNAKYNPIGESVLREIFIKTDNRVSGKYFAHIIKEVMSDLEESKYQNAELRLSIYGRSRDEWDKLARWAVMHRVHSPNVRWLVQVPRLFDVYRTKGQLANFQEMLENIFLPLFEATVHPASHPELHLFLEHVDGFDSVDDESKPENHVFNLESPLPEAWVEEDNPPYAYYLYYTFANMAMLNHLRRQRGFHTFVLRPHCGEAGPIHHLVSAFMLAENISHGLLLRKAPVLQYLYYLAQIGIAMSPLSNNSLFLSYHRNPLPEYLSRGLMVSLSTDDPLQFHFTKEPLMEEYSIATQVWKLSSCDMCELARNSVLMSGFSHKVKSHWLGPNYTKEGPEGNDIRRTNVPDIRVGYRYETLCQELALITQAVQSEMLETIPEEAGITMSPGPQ
assay: Inhibition of recombinant human AMPD2 using AMP as substrate preincubated for 30 mins followed by substrate addition and measured after 30 mins by spectrophotometric analysis
pIC50: −log10 of the molar value.

recordSmiles | pIC50
CC1(C)CN(C(N)=O)c2ccc(F)c(F)c2N1Cc1ccc(COc2ccc(C(N)=O)cc2)cc1 | 6.70
Cc1cccc2c1N(Cc1ccccc1)C(C)(C)CN2C(N)=O | 5.66
CC1(C)CN(C(N)=O)c2ccccc2N1Cc1ccc(OCc2ccccc2)cc1 | 6.13

---

system: AMP deaminase 2 (Homo sapiens)
assay: Selectivity ratio of IC50 for recombinant human AMPD2 using AMP as substrate incubated for 30 mins by spectrophotometric analysis to IC50 for recombinant human AMPD2 using AMP as substrate preincubated for 30 mins followed by substrate addition and measured after 30 mins by spectrophotometric analysis

recordSmiles | Ratio IC50
CC1(C)CN(C(N)=O)c2ccccc2N1Cc1ccccc1Cl | 1.8
CC1(C)CN(C(N)=O)c2cccc(F)c2N1Cc1ccccc1 | 36
CC1(C)CN(C(N)=O)c2ccccc2N1Cc1ccccc1 | 11
CC1(C)CN(C(N)=O)c2ccccc2N1Cc1ccc(Cl)cc1 | 8.9
CC1(C)CN(C(N)=O)c2cccc(Cl)c2N1Cc1ccccc1 | 9.2

---

system: AMP deaminase 2 (Homo sapiens, UniProt Q01433)
assay: Inhibition of recombinant human AMPD2 using AMP as substrate incubated for 30 mins by spectrophotometric analysis

recordSmiles | system | IC50
CC1(C)CN(C(N)=O)c2ccccc2N1Cc1cccc(CCc2ccccc2)c1 | AMP deaminase 2 (Homo sapiens, UniProt Q01433) | > 3 µM
CCC(=O)N1CC(C)(C)N(Cc2ccccc2)c2ccccc21 | AMP deaminase 2 (Homo sapiens, UniProt Q01433) | > 100 µM
CNC(=O)N1CC(C)(C)N(Cc2ccccc2)c2ccccc21 | AMP deaminase 2 (Homo sapiens, UniProt Q01433) | > 100 µM
CC1(C)CN(S(C)(=O)=O)c2ccccc2N1Cc1ccccc1 | AMP deaminase 2 (Homo sapiens, UniProt Q01433) | > 100 µM
